ASSAY_TARGET: HLA-A*02:01 (Homo sapiens, UniProt P04439, D140Y/D185E/D98H/E176V/E277Q/G131W/G231S/I119V/I121R/I166T/I218V/L300P/L318F/N151K/N90K/P208A/P217A/Q86G/Q94H/R138H/R169H/T345S)
PROCEDURE_DETAILS: MHC binding assay (UV-ligand exchange, beta2m ELISA, peptide exchange yield)
CONDITION_SUMMARY: binding of HLA-class I restricted peptides to HLA-A*02:01, ranged by peptide exchange yield (UV-ligand exchange, β2m ELISA)

{"SUBSTANCE": "451 (LLLLDTVTMQV; listed as Homo sapiens) [compound 451]", "Peptide exchange": "″++″ (≥20% = ++)"}
{"SUBSTANCE": "550 (FLYDEIEAEVNL; listed as Homo sapiens) [compound 550]", "Peptide exchange": "″+++″ (≥50% = +++)"}
{"SUBSTANCE": "135 (ALSEVDFQL; listed as Homo sapiens) [compound 135]", "Peptide exchange": "″+++″ (≥50% = +++)"}
{"SUBSTANCE": "589 (KLYPQLPAEI; listed as Homo sapiens) [compound 589]", "Peptide exchange": "″+++″ (≥50% = +++)"}
{"SUBSTANCE": "237 (ALLEASGTLLL; listed as Homo sapiens) [compound 237]", "Peptide exchange": "″++++″ (≥75% = ++++)"}
{"SUBSTANCE": "371 (FLQAHLHTA; listed as Homo sapiens) [compound 371]", "Peptide exchange": "″++++″ (≥75% = ++++)"}
{"SUBSTANCE": "38 (FLLEDDIHVS; listed as Homo sapiens) [compound 38]", "Peptide exchange": "″+++″ (≥50% = +++)"}
{"SUBSTANCE": "275 (YLVYILNEL; listed as Homo sapiens) [compound 275]", "Peptide exchange": "″++″ (≥20% = ++)"}
{"SUBSTANCE": "395 (ALALGGIAVV; listed as Homo sapiens) [compound 395]", "Peptide exchange": "″++++″ (≥75% = ++++)"}
{"SUBSTANCE": "349 (SLTEYLQNV; listed as Homo sapiens) [compound 349]", "Peptide exchange": "″++++″ (≥75% = ++++)"}
{"SUBSTANCE": "16 (VLFQGQASL; listed as Homo sapiens) [compound 16]", "Peptide exchange": "″+++″ (≥50% = +++)"}
{"SUBSTANCE": "466 (VLIANLEKL; listed as Homo sapiens) [compound 466]", "Peptide exchange": "″++++″ (≥75% = ++++)"}
{"SUBSTANCE": "365 (YVIDQGETDVYV; listed as Homo sapiens) [compound 365]", "Peptide exchange": "″+++″ (≥50% = +++)"}
{"SUBSTANCE": "577 (VMFEDGVLMRL; listed as Homo sapiens) [compound 577]", "Peptide exchange": "″+++″ (≥50% = +++)"}
{"SUBSTANCE": "42 (VLLQKIVSA; listed as Homo sapiens) [compound 42]", "Peptide exchange": "″+++″ (≥50% = +++)"}
{"SUBSTANCE": "457 (SLLPGNLVEKV; listed as Homo sapiens) [compound 457]", "Peptide exchange": "″+++″ (≥50% = +++)"}
{"SUBSTANCE": "274 (SLLFSLFEA; listed as Homo sapiens) [compound 274]", "Peptide exchange": "″++″ (≥20% = ++)"}
{"SUBSTANCE": "352 (SLLELLHIYV; listed as Homo sapiens) [compound 352]", "Peptide exchange": "″+++″ (≥50% = +++)"}
{"SUBSTANCE": "635 (SLDSTLHAV; listed as Homo sapiens) [compound 635]", "Peptide exchange": "″+++″ (≥50% = +++)"}
